# ASSAYED_SYSTEM: T1, human SIRPα1 (huSIRPα1), protein antigen (human, UniProt P78324 31-370, limits assumed, biotinylated in the SPR assay)
# T1 construct: Coated on the plate in ELISA, biotinylated and captured in SPR; also called v2
# T1 sequence (P78324 other isoform, or with tags, fused parts or gaps limits assumed): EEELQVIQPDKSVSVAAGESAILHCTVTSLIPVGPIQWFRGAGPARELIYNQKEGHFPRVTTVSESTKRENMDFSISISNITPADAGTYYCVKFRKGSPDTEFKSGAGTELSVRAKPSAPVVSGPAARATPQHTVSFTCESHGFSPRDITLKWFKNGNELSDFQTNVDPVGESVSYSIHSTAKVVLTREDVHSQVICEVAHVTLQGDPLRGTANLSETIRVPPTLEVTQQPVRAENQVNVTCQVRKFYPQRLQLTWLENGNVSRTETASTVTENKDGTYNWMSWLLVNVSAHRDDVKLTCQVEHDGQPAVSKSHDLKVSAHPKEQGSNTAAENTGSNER
# EXPERIMENTAL_PROTOCOL: SPR, biotinylated antigen captured, 25 C
MEASURED_PROPERTY: Kd (nM)
Record the value in nM, omitting the unit from your answer.

Provide measured Kd value, entry: anti-SIRPα antibody 11 humanized (antibody, human IgG1, kappa, L234A L235A, V domains shown, Humanized, human IgG1 LALA / kappa) VH: EVKVEESGGGLVQPGGSLRLSCAASGFSLSSYVMGWVRQAPGKGLEWVSIISSSGSPYYASWVNGRFTISKTSTTMDLQMNSLRAEDTAVYYCARVGPLGVDYFNIWGQGTTVTVSS VL: DIQMTQSPSSLSASVGDRVTITCQAGQSINSYLAWYQQKPGKVPKLLIYYASTLESGVPSRFSGSGSGTDFTLTISSLQPEDVATYYCQSWHYISRSYAFGQGTKVEIKR
41
